system: SR leukemia; assay: NCI tumour cell line growth inhibition, 48 h
property_name: TGI (µM)

molecule: Cc1cccc(Nc2cn(CCOc3ccccc3)c(=O)[nH]c2=O)c1
cmp: >
measured_number: 100
--
molecule: CCOc1ccc(N=NC2C(=O)N(C(=O)CC(=O)Nc3ccc(Cl)cc3)N=C2C)cc1 (stereo not drawn)
cmp: >
measured_number: 100
--
molecule: O=C(OCCOCCOC(=O)c1c[nH]cc1-c1ccccc1)c1c[nH]cc1-c1ccccc1
cmp: =
measured_number: 55.6
--
molecule: COC(=O)CCCc1ccc2c(c1)CCC2
cmp: >
measured_number: 100
--
molecule: CC1(C(O)c2ccccc2)CN(C(C)(C)C)C(=O)/C1=C\Sc1ccccc1 (stereo not drawn)
cmp: >
measured_number: 100
--
molecule: COc1ccc(N=NN2CCCC2)cc1
cmp: >
measured_number: 100
--
molecule: CC(=O)c1ccc2c(c1)CC1(C2)Cc2cc3c(cc2C1)C(=O)CC3 (stereo not drawn)
cmp: =
measured_number: 0.963
--
molecule: O=C1/C(=C/c2ccc(O)cc2)CCC1CNc1ccc(Cl)cc1 (stereo not drawn)
cmp: =
measured_number: 5.51
--
molecule: CC(=O)O[C@H]1C(=O)[C@]2(C)[C@@H](OC(=O)OCC(O)CO)C[C@H]3OC[C@@]3(OC(C)=O)[C@H]2[C@H](OC(=O)c2ccccc2)[C@]2(O)C[C@H](OC(=O)[C@H](O)[C@@H](NC(=O)c3ccccc3)c3ccccc3)C(C)=C1C2(C)C (stereo partly drawn)
cmp: =
measured_number: 15.8
--
molecule: CN(C)/[N+]([O-])=N/Oc1cc(Nc2ccc(C(=O)O)cc2)c([N+](=O)[O-])cc1[N+](=O)[O-]
cmp: >
measured_number: 100
--
molecule: CCC(=O)O[C@@H]1C2C(OC(C)=O)C34COC(C)([C@@H]3C3C(C[C@]3(C)OC(C)=O)[C@@H](OC(=O)c3ccccc3)C4=O)[C@H](OC(C)=O)[C@@]2(OC(C)=O)C[C@@H]1C (stereo partly drawn)
cmp: >
measured_number: 100
--
molecule: Cc1ccccc1NC(=O)c1[nH]c(=S)nc(N)c1-c1ccccc1C
cmp: >
measured_number: 100
--
molecule: O=C(Nc1ccccc1Cl)c1ccc(NC2=C(Cl)C(=O)N(Cc3ccccc3)C2=O)cc1
cmp: =
measured_number: 41.5
--
molecule: O=C(/C=C/c1ccccc1F)C(c1ccccc1)c1ccccc1
cmp: =
measured_number: 41.9
--
molecule: CCCCc1ccc(N2C(=O)c3cc(C)cnc3S2(=O)=O)cc1
cmp: >
measured_number: 100
--
molecule: CC(C)C[C@H](NC(=O)[C@@H](Cc1cccc2ccccc12)NC(=O)N1CCOCC1)B(O)O
cmp: =
measured_number: 19.4
--
molecule: CC(=O)OCC1OC(n2c(-c3ccccc3)c(N=Nc3ccc(Cl)cc3)c(C)c(C#N)c2=S)C(OC(C)=O)C(OC(C)=O)C1OC(C)=O (stereo not drawn)
cmp: >
measured_number: 100
--
molecule: O=C(CC1C(=O)Nc2ccccc2S1=O)Nc1cccc(Cl)c1 (stereo not drawn)
cmp: =
measured_number: 22.1
